# System: UniProt P23219
# Protocol description: COX-1 enzyme activity in human whole blood (A23187 stimulated, thromboxane B2 EIA)
# Assay type: cell-based
# Parameters: Human blood (≈50 mL) from male or female donors who had not received any aspirin or NSAIDs for 14 days; endogenous in cells; host or cells: human whole blood from donors
# Assay conditions: test compound at 100 μM
Reported values of inhibition at 100 µM for individual entries
Quantity kind: inhibition at 100 µM (%)

{"columns": ["Compound", "Quantity kind", "Recorded measurement"],
 "data": [
  ["CS(=O)(=O)c1ccc(-c2cc3c(cc2C(=O)c2cc(F)cc(F)c2)OCCO3)cc1 [Example 22]", "inhibition at 100 µM", 90],
  ["CS(=O)(=O)c1ccc(-c2ccccc2C(=O)c2cccc(F)c2)cc1 [Example 25c]", "inhibition at 100 µM", 40],
  ["CS(=O)(=O)c1ccc(-c2cc3c(cc2Cc2cc(F)cc(F)c2)OCC(C(=O)NCCO)O3)cc1 (stereo not shown) [Example 18c]", "inhibition at 100 µM", 90],
  ["CS(=O)(=O)c1ccc(-c2ccccc2Cc2cccc(F)c2)cc1 [Example 26]", "inhibition at 100 µM", 25],
  ["CS(=O)(=O)c1ccc(-c2ccccc2C=C2CCCCC2)cc1 [Example 24e]", "inhibition at 100 µM", 55],
  ["CS(=O)(=O)c1ccc(-c2cc3c(cc2Cc2cc(F)cc(F)c2)OC(C(N)=O)CO3)cc1 (stereo not shown) [Example 21]", "inhibition at 100 µM", 50],
  ["CS(=O)(=O)c1ccc(-c2cc3c(cc2Cc2cc(F)cc(F)c2)OCCO3)cc1 [Example 20]", "inhibition at 100 µM", 70]
]}

---

Reported values of COX-2 Inhibition (% at 10 μM) for individual entries
# System: UniProt P35354
# Protocol description: COX-2 enzyme activity in human whole blood (LPS induced, thromboxane B2 EIA)
# Format: cell-based
# Design: Human blood (≈50 mL) from male or female donors who had not received any aspirin or NSAIDs for 14 days; endogenous in cells; host or cells: human whole blood from donors, LPS-induced
# Assay conditions: test compound at 10 μM
# Experimental: Human blood (≈50 mL) from male or female donors who had not received any aspirin or NSAIDs for 14 days was collected at two local area blood donor centers and placed in polypropylene syringes containing sodium heparin (20 units per mL blood, final concentration). The blood was transported to the laboratory on ice packs and used within 1.5 hours of collection. […]

{"columns": ["Compound", "COX-2 Inhibition (% at 10 μM)"],
 "data": [
  ["CS(=O)(=O)c1ccc(-c2cc3c(cc2C(=O)c2cccc(F)c2)OCO3)cc1", "95%"],
  ["CS(=O)(=O)c1ccc(-c2cc3c(cc2C=C2CCCC2)OCO3)cc1 [Example 10a]", "90%"],
  ["CS(=O)(=O)c1ccc(-c2cc3c(cc2CN2CCCCC2=O)OCO3)cc1", "30%"],
  ["COc1cccc(C(=O)c2cc3c(cc2-c2ccc(S(C)(=O)=O)cc2)OCO3)c1 [Example 13c]", "75%"]
]}

---

# System: COX-1 (Homo sapiens)
# Protocol description: Human COX-1 enzyme activity (COX Inhibitor Screening Assay, prostaglandin EIA)
# Format: biochemical
# Set-up: purchased Cayman Chemical
# Assay conditions: test compound at 100 μM
Binary call on COX-1 Inhibition (% at 100 μM): criterion met from 10% upward, criterion not met beneath that.

{"columns": ["Molecule", "Class"],
 "data": [
  ["CS(=O)(=O)c1ccc(-c2cc3c(cc2C=C2CCCC2)OCO3)cc1 [Example 10a]", "criterion met"],
  ["CS(=O)(=O)c1ccc(-c2cc3c(cc2C=C2CCCCC2)OCO3)cc1", "criterion not met"],
  ["CS(=O)(=O)c1ccc(-c2cc3c(cc2CC2CCCC2)OCO3)cc1 [Example 10b]", "criterion met"],
  ["CS(=O)(=O)c1ccc(-c2cc3c(cc2C(=O)c2ccccc2)OCO3)cc1", "criterion not met"],
  ["CS(=O)(=O)c1ccc(-c2cc3c(cc2Cc2cccnc2)OCO3)cc1", "criterion met"],
  ["CS(=O)(=O)c1ccc(-c2cc3c(cc2CN2CCCC(CO)C2)OCO3)cc1 (stereo not drawn)", "criterion not met"],
  ["CS(=O)(=O)c1ccc(-c2cc3c(cc2Cc2cc(F)cc(F)c2)OCO3)cc1 [Example 15c]", "criterion met"],
  ["CS(=O)(=O)c1ccc(-c2cc3c(cc2C(=O)c2cccnc2)OCO3)cc1", "criterion met"],
  ["CS(=O)(=O)c1ccc(-c2cc3c(cc2CN2CCCC(CO[N+](=O)[O-])C2)OCO3)cc1 (stereo not drawn)", "criterion met"],
  ["CS(=O)(=O)c1ccc(-c2cc3c(cc2CN2CCCCC2=O)OCO3)cc1", "criterion met"],
  ["CS(=O)(=O)c1ccc(-c2cc3c(cc2CC2CCCCC2)OCO3)cc1", "criterion not met"]
]}

---

Reported values of COX-1 Inhibition (% at 100 μM) for individual entries
# System: COX-1 (Homo sapiens, UniProt P23219)
# Sequence (P23219 24-599): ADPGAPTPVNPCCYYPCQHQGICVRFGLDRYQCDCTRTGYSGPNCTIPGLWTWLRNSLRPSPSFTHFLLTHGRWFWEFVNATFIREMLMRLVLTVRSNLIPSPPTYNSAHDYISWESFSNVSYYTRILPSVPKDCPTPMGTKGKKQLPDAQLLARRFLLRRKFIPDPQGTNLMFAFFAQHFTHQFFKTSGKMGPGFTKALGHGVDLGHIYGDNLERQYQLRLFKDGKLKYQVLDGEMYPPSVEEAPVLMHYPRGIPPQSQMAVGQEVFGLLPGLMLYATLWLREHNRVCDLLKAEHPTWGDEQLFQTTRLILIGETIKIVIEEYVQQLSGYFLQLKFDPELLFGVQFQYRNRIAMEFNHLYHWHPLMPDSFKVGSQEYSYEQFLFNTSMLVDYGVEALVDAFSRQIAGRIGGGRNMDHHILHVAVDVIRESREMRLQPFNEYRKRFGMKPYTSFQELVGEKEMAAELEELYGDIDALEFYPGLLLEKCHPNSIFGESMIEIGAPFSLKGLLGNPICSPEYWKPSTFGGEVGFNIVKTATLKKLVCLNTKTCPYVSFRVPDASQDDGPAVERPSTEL
# Protocol description: COX-1 enzyme activity in human whole blood (A23187 stimulated, thromboxane B2 EIA)
# Format: cell-based
# Design: Human blood (≈50 mL) from male or female donors who had not received any aspirin or NSAIDs for 14 days; endogenous in cells; host or cells: human whole blood from donors
# Assay conditions: test compound at 100 μM

{"columns": ["Compound", "System", "COX-1 Inhibition (% at 100 μM), %"],
 "data": [
  ["CS(=O)(=O)c1ccc(-c2cc3c(cc2CC2CCCCCC2)OCO3)cc1 [Example 11c]", "COX-1 (Homo sapiens, UniProt P23219)", 40],
  ["CCOC(=O)/C(C)=C/c1cc2c(cc1-c1ccc(S(C)(=O)=O)cc1)OCO2", "COX-1 (Homo sapiens, UniProt P23219)", 5],
  ["CS(=O)(=O)c1ccc(-c2cc3c(cc2C(=O)c2cc(F)cc(F)c2)OCO3)cc1", "COX-1 (Homo sapiens, UniProt P23219)", 50],
  ["CS(=O)(=O)c1ccc(-c2cc3c(cc2Cc2cccnc2)OCO3)cc1", "COX-1 (Homo sapiens, UniProt P23219)", 20]
]}

---

# System: COX-2 (Homo sapiens, UniProt P35354)
# Sequence (P35354 18-604): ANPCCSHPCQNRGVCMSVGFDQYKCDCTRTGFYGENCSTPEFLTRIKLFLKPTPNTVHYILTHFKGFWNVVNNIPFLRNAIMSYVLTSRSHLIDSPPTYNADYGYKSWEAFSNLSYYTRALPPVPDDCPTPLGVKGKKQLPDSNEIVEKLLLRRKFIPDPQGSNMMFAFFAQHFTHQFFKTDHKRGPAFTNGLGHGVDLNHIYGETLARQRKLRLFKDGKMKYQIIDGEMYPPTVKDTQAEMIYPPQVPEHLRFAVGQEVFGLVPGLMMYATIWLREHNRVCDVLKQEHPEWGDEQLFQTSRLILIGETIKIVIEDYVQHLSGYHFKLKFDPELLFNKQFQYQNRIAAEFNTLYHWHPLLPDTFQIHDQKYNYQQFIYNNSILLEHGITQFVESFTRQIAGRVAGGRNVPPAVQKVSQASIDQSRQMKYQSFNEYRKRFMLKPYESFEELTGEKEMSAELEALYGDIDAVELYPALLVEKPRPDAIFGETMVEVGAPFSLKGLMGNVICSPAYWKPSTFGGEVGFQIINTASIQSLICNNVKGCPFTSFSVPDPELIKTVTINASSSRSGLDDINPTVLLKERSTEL
# Protocol description: COX-2 enzyme activity in human whole blood (LPS induced, thromboxane B2 EIA)
# Format: cell-based
# Design: Human blood (≈50 mL) from male or female donors who had not received any aspirin or NSAIDs for 14 days; endogenous in cells; host or cells: human whole blood from donors, LPS-induced
# Assay conditions: test compound at 10 μM
Reported values of inhibition at 10 µM for individual entries

{"columns": ["Molecule", "inhibition at 10 µM"],
 "data": [
  ["CS(=O)(=O)c1ccc(-c2ccccc2Cc2cccc(F)c2)cc1", "10%"],
  ["CS(=O)(=O)c1ccc(-c2cc3c(cc2Cc2cc(F)cc(F)c2)OCCO3)cc1", "40%"],
  ["CS(=O)(=O)c1ccc(-c2cc3c(cc2Cc2cc(F)cc(F)c2)OC(C(N)=O)CO3)cc1 (stereo not drawn)", "30%"]
]}

---

# System: UniProt P23219
# Protocol description: COX-1 enzyme activity in human whole blood (A23187 stimulated, thromboxane B2 EIA)
# Type: cell-based
# Parameters: Human blood (≈50 mL) from male or female donors who had not received any aspirin or NSAIDs for 14 days; endogenous in cells; host or cells: human whole blood from donors
# Assay conditions: test compound at 100 μM
Reported values of COX-1 Inhibition (% at 100 μM) for individual entries
Quantity kind: COX-1 Inhibition (% at 100 μM) (%)

{"columns": ["Compound", "Quantity kind", "Recorded measurement"],
 "data": [
  ["CS(=O)(=O)c1ccc(-c2cc3c(cc2C(=O)c2ccccc2F)OCO3)cc1 [Example 4d]", "COX-1 Inhibition (% at 100 μM)", 70],
  ["C/C(=C\\c1cc2c(cc1-c1ccc(S(C)(=O)=O)cc1)OCO2)CO [Example 7e]", "COX-1 Inhibition (% at 100 μM)", 20],
  ["CS(=O)(=O)c1ccc(-c2cc3c(cc2C(=O)c2cccc(CO[N+](=O)[O-])c2)OCO3)cc1 [Example 12d]", "COX-1 Inhibition (% at 100 μM)", 20],
  ["Cc1ccc(F)c(C(=O)c2cc3c(cc2-c2ccc(S(C)(=O)=O)cc2)OCO3)c1 [Example 14c]", "COX-1 Inhibition (% at 100 μM)", 90],
  ["CS(=O)(=O)c1ccc(-c2cc3c(cc2C(=O)c2ccccc2)OCO3)cc1 [Example 3d]", "COX-1 Inhibition (% at 100 μM)", 75],
  ["Cc1cccc(C(=O)c2cc3c(cc2-c2ccc(S(C)(=O)=O)cc2)OCO3)c1 [Example 12c]", "COX-1 Inhibition (% at 100 μM)", 90],
  ["CS(=O)(=O)c1ccc(-c2cc3c(cc2Cc2ccccc2F)OCO3)cc1 [Example 4c]", "COX-1 Inhibition (% at 100 μM)", 70],
  ["CS(=O)(=O)c1ccc(-c2cc(O)c(O)cc2C(=O)c2cc(F)cc(F)c2)cc1 [Example 17h]", "COX-1 Inhibition (% at 100 μM)", 65],
  ["CS(=O)(=O)c1ccc(-c2cc(O)c(O)cc2Cc2cc(F)cc(F)c2)cc1 [Example 17e]", "COX-1 Inhibition (% at 100 μM)", 35],
  ["COc1cccc(C(=O)c2cc3c(cc2-c2ccc(S(C)(=O)=O)cc2)OCO3)c1 [Example 13c]", "COX-1 Inhibition (% at 100 μM)", 90],
  ["CS(=O)(=O)c1ccc(-c2cc3c(cc2Cc2cc(F)cc(F)c2)OCO3)cc1 [Example 15c]", "COX-1 Inhibition (% at 100 μM)", 75],
  ["CS(=O)(=O)c1ccc(-c2cc3c(cc2C=C2CCCC2)OCO3)cc1 [Example 10a]", "COX-1 Inhibition (% at 100 μM)", 70],
  ["CS(=O)(=O)c1ccc(-c2cc3c(cc2Cc2cc(F)cc(F)c2)OC(C(=O)NCCO)CO3)cc1 (stereo not drawn) [Example 18b]", "COX-1 Inhibition (% at 100 μM)", 50],
  ["CS(=O)(=O)c1ccc(-c2cc3c(cc2Cc2cc(F)cc(F)c2)OC(C(=O)NCCO[N+](=O)[O-])CO3)cc1 (stereo not drawn) [Example 18d]", "COX-1 Inhibition (% at 100 μM)", 60],
  ["CS(=O)(=O)c1ccc(-c2cc3c(cc2CC2CCCCC2)OCO3)cc1 [Example 1e]", "COX-1 Inhibition (% at 100 μM)", 40],
  ["COc1cc(Cc2cc(F)cc(F)c2)c(-c2ccc(S(C)(=O)=O)cc2)cc1OC [Example 17d]", "COX-1 Inhibition (% at 100 μM)", 25],
  ["CS(=O)(=O)c1ccc(-c2cc3c(cc2CN2CCCCC2=O)OCO3)cc1 [Example 9c]", "COX-1 Inhibition (% at 100 μM)", 35],
  ["CS(=O)(=O)c1ccc(-c2cc3c(cc2C(=O)c2cccc(F)c2)OCO3)cc1 [Example 5d]", "COX-1 Inhibition (% at 100 μM)", 70],
  ["CCOC(=O)C1(C(=O)OCC)Oc2cc(Cc3cc(F)cc(F)c3)c(-c3ccc(S(C)(=O)=O)cc3)cc2O1 [Example 17f]", "COX-1 Inhibition (% at 100 μM)", 10],
  ["CS(=O)(=O)c1ccc(-c2cc3c(cc2C=C2CCCCC2)OCO3)cc1 [Example 1d]", "COX-1 Inhibition (% at 100 μM)", 50],
  ["CS(=O)(=O)c1ccc(-c2cc3c(cc2Cc2ccccc2)OCO3)cc1 [Example 3c]", "COX-1 Inhibition (% at 100 μM)", 65],
  ["CS(=O)(=O)c1ccc(-c2cc3c(cc2Cc2cccc(F)c2)OCO3)cc1 [Example 5c]", "COX-1 Inhibition (% at 100 μM)", 55],
  ["CS(=O)(=O)c1ccc(-c2cc3c(cc2C=C2CCCCCC2)OCO3)cc1 [Example 11b]", "COX-1 Inhibition (% at 100 μM)", 40],
  ["O=[N+]([O-])OCc1ccc(-c2cc3c(cc2Cc2cc(F)cc(F)c2)OCO3)cc1 [Example 23d]", "COX-1 Inhibition (% at 100 μM)", 65]
]}
